# target: T1, T cell receptor (TCR) Vγ9 (TRGV9) (human, UniProt Q99603 21-122); note: test concentration or dose not given here
# T1 sequence (looked up): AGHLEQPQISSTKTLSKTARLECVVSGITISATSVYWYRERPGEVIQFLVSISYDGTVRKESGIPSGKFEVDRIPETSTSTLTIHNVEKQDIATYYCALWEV
# runDescription: cell-based or functional assay
endpoint: CD71+ (Vg9+ cells), flow staining (%)
Value expressed in %; do not type the unit.

Some binders with recorded CD71+ (Vg9+ cells), flow staining:
[
  {
    "binder": "VG9B121 (antibody, human IgG1, kappa, V domains shown) VH: EVQLVESGGGLVKPGGSLRLSCVASGFTFSDYAMDWVRQAPGKGLDWISSISSTSNYIFYADSVKGRFTISRDNAKNSLYLQMNSLRVEDSAVYYCANSYNWNYGGAFDIWGQGTMVTVSS VL: DIQMTQSPGTLSSSPGERATLSCRASQSVSSSYFAWYQQKPGRAPRLLIYGASSRATGIPDRFSGSGSGTDFTLTISRLEPEDFAVYFCQQYGRSPLTFGGGTKVEIKR",
    "CD71+ (Vg9+ cells), flow staining (%)": 98.7
  },
  {
    "binder": "VG9B195 (antibody, human IgG1, lambda, V domains shown) VH: EVQLVESGGGLVKPGGSLRLSCAASGFTFSPYTMNWVRQAPGKGLEWVSSISSSSSYMYYADSVKGRFTISRDNAKNSLYLQMNSLRAEDTAVYYCARDGDLVGPTYYFDYWGQGTLVTVSS VL: SYELMQPPSVSVSPGQTASITCSGDKLGDKYACWYQQKPGQSPVLVIYQHNKRPSGIPERFSGSNSGKTATLTISGTQAMDEADYYCQAWDSTTVVFGGGTKLTVLG",
    "CD71+ (Vg9+ cells), flow staining (%)": 86.9
  },
  {
    "binder": "VG9B46 (antibody, human IgG1, kappa, V domains shown) VH: EVQLVESGGGLVKPGGSLRLSCEASGFTFSINSMNWVRQAPGKGLEWVSSISSTSDYIFNADSVKGRFTISRDNAKNSLYLQMNSLRAEDTAVYYCVRDDVFGAFDIWGQGTMVTVSS VL: EIVLTQSPGTLSLSPGERATLSCRTSQSVSRSYLGWYQQKPGQPPRLLIFGSSSRATGIPDRFSGSGSGTDFTLTISRLEPEDFAVYYCQQYSRSPLTFGGGTKVDIKR",
    "CD71+ (Vg9+ cells), flow staining (%)": 95.8
  }
]

Read the next record carefully.
Exam item: Give CD71+ (Vg9+ cells), flow staining for VG9B80 (antibody, human IgG1, kappa, V domains shown) VH: EVQLVQSGGGLVKSGGSLRLSCAASGFTFSTYSMNWVRQAPGKGLEWVSSISSSSSYIFYADSVKGRIIISRDNAKNSLYLQMNSVRADDTAVYYCAKDGELGVFDYWGQGTLVTVSS VL: EIVLTQSPGTLSLSAGERATLSCRASQSISSSYLAWYQQKPGQAPRVLIYGPSGRATGIPDRFRGSGSGTDFTLTISRLEPEDFAVYYCQQFGRSPLTFGGGTKVEIKR
Marked response: 98.3
